The values you see were collected from patent US9233067B2.

Entries and their measured log D follow.
test: Calculated apparent distribution coefficient (log D); settings: pH 7; calculated from log P and pKa
Where a name gives a salt, the structure may show the parent alone.

| molecule | log D |
| --- | --- |
| CN[C@@H](C)[C@H](O)c1ccccc1 [Ephedrine*HCl, Ephedrine] | −1.321 |
| CCCCNc1ccc(C(=O)OCCN(C)C)cc1 [Tetracaine*HCl, Tetracaine] | 2.773 |
| CCN(CC)CCOC(=O)c1ccc(N)cc1 [Procaine*HCl, Procaine] | 0.396 |
| CCOc1ccc2nc3cc(N)ccc3c(N)c2c1 [Ethacridine lactate] | 2.899 |
| COc1ccc(Cc2nccc3cc(OC)c(OC)cc23)cc1OC [Papaverine*HCl, Papaverine] | 2.395 |
